Values were extracted from patent US6531512B1.

Collected Analog (intracellular accumulation) values appear next to each entry.
- Tested on: SK-MEL-28 human melanoma cells
- Protocol text: Polyamine pools and analog accumulation in SK-MEL-28 cells
- Type: cell-based
- Details: SK-MEL-28 cells, 24 hours, Table 4
State the answer as a number, implicitly in pmol/10^6 cells.

>  <Entry smiles>
CCNCCCCNCCCCNCCCNCC

>  <Tgt>
SK-MEL-28 human melanoma cells

>  <Analog (intracellular accumulation) [pmol/10^6 cells]>
5610

$$$$
>  <Entry smiles>
CCNCCCNCCCNCCCNCC

>  <Tgt>
SK-MEL-28 human melanoma cells

>  <Analog (intracellular accumulation) [pmol/10^6 cells]>
7710

$$$$
>  <Entry smiles>
CCNCCCCNCCCCNCCCCNCC

>  <Tgt>
SK-MEL-28 human melanoma cells

>  <Analog (intracellular accumulation) [pmol/10^6 cells]>
5950

$$$$

Here is the next item to consider.
Reported Analog (intracellular accumulation) for CCNCCCNCCCCNCCCNCC was 5830
